molecular target: T1, huNav157 chimera 14 (human); test: binding FACS, HEK FlpIn cells
T1 construct: Chimera without β subunits; also called Nav157ch14
measured-metric: Bmax (%)
Numbers only; they are read as %.

Recorded Bmax, per entry:
binder: F010301647 (VHH, also called F0103387G05(L11V, A14P, F47L, N82bS, N83R, V89L, R105Q); F47L) VHH: EVQLVESGGGVVQPGGSLRLSCDASGRILRIGYMRWHRQGAGKQRELVARITDDSATDYADSVKGRFTISRDNAKNTVYLQMNSLRPEDTALYYCEALVTASVRGGSIHSGTYWGQGTLVTVSS
measured-metric: Bmax
value-unit: %
test-value: 80
//
binder: F010301649 (VHH, also called F0103387G05(L11V, A14P, N82bS, N83R, V89L, R105Q)) VHH: EVQLVESGGGVVQPGGSLRLSCDASGRILRIGYMRWHRQGAGKQREFVARITDDSATDYADSVKGRFTISRDNAKNTVYLQMNSLRPEDTALYYCEALVTASVRGGSIHSGTYWGQGTLVTVSS
measured-metric: Bmax
value-unit: %
test-value: 100
//
binder: F010302391 (VHH, also called F0103387G05(L11V, A14P, D23A, H37Y, G40A, A41P, D53G, D54G, D58G, N82bS, N83R, V89L, R105Q)-FLAG3-HIS6) VHH: EVQLVESGGGVVQPGGSLRLSCAASGRILRIGYMRWYRQAPGKQREFVARITGGSATGYADSVKGRFTISRDNAKNTVYLQMNSLRPEDTALYYCEALVTASVRGGSIHSGTYWGQGTLVTVSS
measured-metric: Bmax
value-unit: %
test-value: 100

Okay, now this binder:
Q: Requested field: Bmax. Item: F010301648 (VHH, also called F0103387G05(L11V, A14P, N82bS, N83R, V89L, E93N, R105Q); E93N) VHH: EVQLVESGGGVVQPGGSLRLSCDASGRILRIGYMRWHRQGAGKQREFVARITDDSATDYADSVKGRFTISRDNAKNTVYLQMNSLRPEDTALYYCNALVTASVRGGSIHSGTYWGQGTLVTVSS
A: 30
